- Method: 14-day repeated dose study to identify the MTD
- Condition Summary: Swiss Webster, mouse, in vivo, ip

Compound: CCCCC/C=C\C/C=C\C/C=C\C/C=C\CCCC(=O)C(F)(F)F [ATK, Arachidonyl trifluoromethyl ketone]
Quantity Unit: mg/kg
MTD at 14 days: 10

====

- Tested on: UACC 903 melanoma cell line
- Method: MTS cell viability, UACC 903
- Format: cell-based
- Condition Summary: Homo sapiens, UACC-903, 72 h, read-out: IC50 UACC 903
pIC50: −log10 of the molar value.
Outcome Measure: pIC50

Smiles Structure: CCCCC/C=C\C/C=C\C/C=C\C/C=C\CCCC(=O)C(F)(F)F
Recorded Result: 4.58

====

- Method: Hemolytic activity
- Format: cell-based
- Condition Summary: human, human erythrocytes, 5% v/v suspension
Outcome Measure: hemolysis at 60 min, 40 μmol/L (%)

Smiles Structure: CCCCC/C=C\C/C=C\C/C=C\C/C=C\CCCC(=O)C(F)(F)F
Quantity Unit: %
Recorded Result: 2.9

====

- Tested on: FOM103 normal melanocytes
- Method: MTS cell viability, FOM103
- Type: cell-based
- Condition Summary: Melanocyte, 72 h, read-out: IC50 FOM103
pIC50: −log10 of the molar value.

Smiles Structure: CCCCC/C=C\C/C=C\C/C=C\C/C=C\CCCC(=O)C(F)(F)F
Study Target: FOM103 normal melanocytes
pIC50: 4.24

====

- Method: Hemolytic activity
- Assay type: cell-based
- Condition Summary: human, human erythrocytes, 5% v/v suspension
Outcome Measure: hemolysis at 60 min

Compound: CCCCC/C=C\C/C=C\C/C=C\C/C=C\CCCC(=O)C(F)(F)F [ATK, Arachidonyl trifluoromethyl ketone]
Outcome Measure: hemolysis at 60 min
Recorded Result: 2 to 3%
